- Test system: human PKK mRNA
- protocolText: Antisense inhibition of human PKK mRNA in HepaRG cells, 1,000 nM, MOE/deoxy/cEt oligonucleotides (Example 3)
- Assay type: cell-based
- appliedConditions: Table 27; HepaRG cells, 1,000 nM antisense oligonucleotide; human PKK mRNA
Strand notation (5' to 3'): a small letter for the sugar, then the base; units joined by * are phosphorothioate-linked, units joined directly phosphodiester-linked; [ ] holds rarer units or linkages, { } end groups; capitals alone tell only the bases. e = 2'-O-(2-methoxyethyl) (MOE); k = constrained ethyl (cEt); [5mC] = 5-methylcytosine; d = 2'-deoxy (DNA)
readout: % inhibition

1. 548324 (eA*e[5mC]*kA*dT*dA*dA*dA*dT*dT*d[5mC]*d[5mC]*d[5mC]*d[5mC]*kA*k[5mC]*eA; antisense) [compound 548324]    29%
2. 548317 (e[5mC]*e[5mC]*kG*dG*dG*dA*dA*dA*dG*dA*d[5mC]*dT*dG*kT*k[5mC]*eT; antisense) [compound 548317]    42%

Write down % inhibition measured for item 548373 (eT*e[5mC]*k[5mC]*d[5mC]*d[5mC]*dA*dA*dG*dA*dT*dT*dA*dT*kG*kT*eG; antisense) [compound 548373]
16%

---

- Tested on: human PKK mRNA
- protocolText: Dose-dependent antisense inhibition of human PKK in HepaRG cells, 0.11-3.00 uM (Example 6)
- Type: cell-based
- appliedConditions: electroporation, 0.33 μM, approx. 16 hours, relative to untreated control cells
Strand notation (5' to 3'): a small letter for the sugar, then the base; units joined by * are phosphorothioate-linked, units joined directly phosphodiester-linked; [ ] holds rarer units or linkages, { } end groups; capitals alone tell only the bases. e = 2'-O-(2-methoxyethyl) (MOE); k = constrained ethyl (cEt); [5mC] = 5-methylcytosine; d = 2'-deoxy (DNA)
readout: percent inhibition of PKK mRNA, 0.33 μM (%)
Numbers only; they are read as %.

Reference set (3 entries):
1. 548343 (antisense eT*eA*kG*dT*dG*dA*dT*dA*dA*dG*dA*dG*d[5mC]*kT*kG*eG) [compound 548343]    67
2. 548217 (e[5mC]*eT*kG*dT*dG*d[5mC]*dA*dT*dA*dG*dA*d[5mC]*d[5mC]*k[5mC]*k[5mC]*eA; antisense) [compound 548217]    24
3. 548174 (eT*e[5mC]*kT*d[5mC]*dA*dG*dT*dT*dG*d[5mC]*dG*dA*d[5mC]*k[5mC]*kT*e[5mC]; antisense) [compound 548174]    18

Write down percent inhibition of PKK mRNA, 0.33 μM measured for item 548061 (eG*e[5mC]*kT*dT*dG*dT*dG*dT*d[5mC]*dA*d[5mC]*d[5mC]*dT*kT*kT*eG; antisense) [compound 548061]
61

Write down percent inhibition of PKK mRNA, 0.33 μM measured for item 548521 (antisense e[5mC]*eA*kG*d[5mC]*dT*d[5mC]*d[5mC]*d[5mC]*dT*dT*dA*d[5mC]*dT*kA*kG*eG) [compound 548521]
0

Write down percent inhibition of PKK mRNA, 0.33 μM measured for item 548425 (antisense eA*eA*k[5mC]*dA*dG*dT*dA*dT*d[5mC]*dA*d[5mC]*dT*dG*kT*k[5mC]*e[5mC]) [compound 548425]
57

Write down percent inhibition of PKK mRNA, 0.33 μM measured for item 548278 (antisense eG*eG*kT*dT*d[5mC]*d[5mC]*d[5mC]*dT*dA*dG*d[5mC]*dG*dG*kT*k[5mC]*e[5mC]) [compound 548278]
59

Write down percent inhibition of PKK mRNA, 0.33 μM measured for item 547769 (antisense eT*eT*kG*dG*dA*dG*dG*dT*dG*dA*dG*dT*d[5mC]*kT*k[5mC]*eT) [compound 547769]
17

Write down percent inhibition of PKK mRNA, 0.33 μM measured for item 547861 (antisense eA*e[5mC]*kT*d[5mC]*d[5mC]*dT*d[5mC]*dT*d[5mC]*dA*dT*dA*dT*k[5mC]*kA*eA) [compound 547861]
40

Write down percent inhibition of PKK mRNA, 0.33 μM measured for item 548043 (eA*eT*kT*dT*dG*dT*dG*dA*dG*dA*dA*dA*dG*kG*kT*eG; antisense) [compound 548043]
60

Write down percent inhibition of PKK mRNA, 0.33 μM measured for item 547862 (antisense eG*eA*k[5mC]*dT*d[5mC]*d[5mC]*dT*d[5mC]*dT*d[5mC]*dA*dT*dA*kT*k[5mC]*eA) [compound 547862]
71

Write down percent inhibition of PKK mRNA, 0.33 μM measured for item 548201 (eT*eG*kT*dT*d[5mC]*dT*dA*dA*dT*dG*dT*dG*dG*k[5mC]*kA*e[5mC]; antisense) [compound 548201]
7

Write down percent inhibition of PKK mRNA, 0.33 μM measured for item 548010 (eA*eG*kT*dG*dT*dT*dA*d[5mC]*dA*d[5mC]*dA*dA*dT*k[5mC]*kT*e[5mC]; antisense) [compound 548010]
11

Write down percent inhibition of PKK mRNA, 0.33 μM measured for item 548667 (antisense eT*eG*kG*d[5mC]*dA*dA*dG*d[5mC]*dT*dA*d[5mC]*d[5mC]*dT*kT*k[5mC]*eT) [compound 548667]
37

Write down percent inhibition of PKK mRNA, 0.33 μM measured for item 548005 (eA*eG*kA*dG*dT*dA*dA*d[5mC]*d[5mC]*dA*dG*dA*dG*k[5mC]*kT*e[5mC]; antisense) [compound 548005]
49

Write down percent inhibition of PKK mRNA, 0.33 μM measured for item 548069 (e[5mC]*e[5mC]*kA*dA*d[5mC]*dA*dG*dT*dT*dG*dG*dT*dA*kT*kA*eA; antisense) [compound 548069]
0

Write down percent inhibition of PKK mRNA, 0.33 μM measured for item 548047 (eG*eA*kT*dA*dT*d[5mC]*dA*dT*dG*dA*dT*dT*d[5mC]*k[5mC]*k[5mC]*eT; antisense) [compound 548047]
62

Write down percent inhibition of PKK mRNA, 0.33 μM measured for item 547808 (e[5mC]*eA*kT*d[5mC]*dT*dG*dG*d[5mC]*dA*dG*dT*dA*dT*kT*kG*eG; antisense) [compound 547808]
22

Write down percent inhibition of PKK mRNA, 0.33 μM measured for item 548147 (e[5mC]*eG*kT*d[5mC]*d[5mC]*dT*dT*dA*dG*dG*dA*dT*dG*k[5mC]*kA*eA; antisense) [compound 548147]
94

Write down percent inhibition of PKK mRNA, 0.33 μM measured for item 548197 (eT*eG*k[5mC]*dT*dT*dG*dG*d[5mC]*dT*dT*d[5mC]*dA*dA*kT*kA*eT; antisense) [compound 548197]
37

Write down percent inhibition of PKK mRNA, 0.33 μM measured for item 548265 (antisense e[5mC]*e[5mC]*kT*d[5mC]*dT*dT*dG*dA*dT*dT*dT*dG*dG*kG*k[5mC]*eA) [compound 548265]
69

Write down percent inhibition of PKK mRNA, 0.33 μM measured for item 548180 (eT*e[5mC]*kA*dT*dG*dG*dA*dG*dA*dT*d[5mC]*dT*d[5mC]*kA*kG*eT; antisense) [compound 548180]
59

Write down percent inhibition of PKK mRNA, 0.33 μM measured for item 547824 (e[5mC]*eG*kA*dT*dG*dT*dA*d[5mC]*dT*dT*dT*dT*dG*kG*k[5mC]*eA; antisense) [compound 547824]
73

Write down percent inhibition of PKK mRNA, 0.33 μM measured for item 547946 (eG*eA*kA*d[5mC]*dT*dT*dG*dG*dT*dG*dT*dG*d[5mC]*k[5mC]*kA*e[5mC]; antisense) [compound 547946]
47

Source: patent US11840686B2
